molecular target: human La antigen (Homo sapiens, UniProt P05455, T302N); construct: amino acids 100–324 of the human La antigen (plus T302N mutation); 6xHis (N); 6xHis (C); host or cells: Escherichia coli Rosetta cells; assay: ALARM NMR; type: binding; settings: 400 μM compound; DTT present
Sequence (P05455 100-324 T302N): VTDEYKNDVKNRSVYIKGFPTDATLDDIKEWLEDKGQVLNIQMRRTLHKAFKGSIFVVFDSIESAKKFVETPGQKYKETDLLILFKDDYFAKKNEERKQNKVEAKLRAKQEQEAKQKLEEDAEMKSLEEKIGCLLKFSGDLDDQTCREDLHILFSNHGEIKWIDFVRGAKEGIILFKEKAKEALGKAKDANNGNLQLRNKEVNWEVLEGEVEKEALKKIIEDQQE
property_measured: ALARM NMR, (+) DTT

Please review the following examples before continuing.
>  <molecule>
CCCCCCCCCCCC1=C(O)C(=O)C=C(O)C1=O [Compound 9, Embelin]

>  <target_entity>
human La antigen (Homo sapiens, UniProt P05455, T302N)

>  <property_measured>
ALARM NMR, (+) DTT

>  <value>
Positive

$$$$
>  <molecule>
Clc1ccc(-c2csc(NN=C3CCCC3)n2)cc1 [Compound 7, CPTH2]

>  <target_entity>
human La antigen (Homo sapiens, UniProt P05455, T302N)

>  <property_measured>
ALARM NMR, (+) DTT

>  <value>
Negative

$$$$
>  <molecule>
CCCCCCCc1ccc(CCc2cccc(O)c2C(=O)O)cc1 [Compound 15, MG 149]

>  <target_entity>
human La antigen (Homo sapiens, UniProt P05455, T302N)

>  <property_measured>
ALARM NMR, (+) DTT

>  <value>
Positive

$$$$
>  <molecule>
COc1ccc(/C(Cl)=C(/C=O)c2ccc(OC)cc2)cc1 [Compound 18, Windorphen]

>  <target_entity>
human La antigen (Homo sapiens, UniProt P05455, T302N)

>  <property_measured>
ALARM NMR, (+) DTT

>  <value>
Negative

$$$$
>  <molecule>
C=C1C(=O)O[C@H](CCC)[C@H]1C(=O)O [Compound 6, MB-3]

>  <target_entity>
human La antigen (Homo sapiens, UniProt P05455, T302N)

>  <property_measured>
ALARM NMR, (+) DTT

>  <value>
Negative

$$$$
>  <molecule>
Cl.Cl.O=C(O)Cn1nnc(-c2ccc(CN(CCCCOc3ccc(CN4CCCC4)cc3)CCc3ccccc3)cc2)n1 [Compound 20, TH1834]

>  <target_entity>
human La antigen (Homo sapiens, UniProt P05455, T302N)

>  <property_measured>
ALARM NMR, (+) DTT

>  <value>
Negative

$$$$

Give one value of ALARM NMR, (+) DTT per listed molecule.
1. CC1=NN(c2ccc(C(=O)O)cc2)C(=O)/C1=C/c1ccc(-c2cc(C)c(C)cc2[N+](=O)[O-])o1 [Compound 1, C646]
2. CCCC1(c2ccccc2)NC(=O)N(CC(=O)N(C)Cc2c(F)cccc2Cl)C1=O (centres unmarked) [Compound 21]

Reply text:
1: Negative; 2: Negative
